This section lists IC50 readings for C-C chemokine receptor type 1 (Homo sapiens, UniProt P32246).
Include the unit right after the number.

Use the examples below as a reference point.
Line Notation	Result
CNC(=O)[C@H](CC(C)C)C[C@H](O)[C@H](CC1CCCCC1)NC(=O)c1cnc2ccccc2c1	2.3 µM
CC(C)C[C@H](C[C@H](O)[C@H](CC1CCCCC1)NC(=O)c1cnc2ccccc2c1)C(N)=O	8 µM

The compound CNC(=O)[C@@H](CC(C)C)C[C@@H](O)[C@@H](CC1CCCCC1)NC(=O)c1cnc2ccccc2c1 showed IC50 equal to 15 µM

The compound CNC(=O)[C@@H](CC(C)C)C[C@H](O)[C@H](CC1CCCCC1)NC(=O)c1cnc2ccccc2c1 showed IC50 equal to 30 µM

The compound CNC(=O)[C@H](CC(C)C)C[C@H](O)[C@H](Cc1ccccc1)NC(=O)c1cnc2ccccc2c1 showed IC50 equal to 0.65 µM
